Test system: 883617-216-R-J1-PDC complex spheroid viability
Test: Anticancer human tumor 883617-216-R-J1-PDC patient-derived bladder carcinoma cell line growth inhibition
Details: curve of first compound; second compound 10 µM
pIC50: −log10 of the molar value.
ATTRIBUTE MEASURED: pIC50

>  <COMPOUND>
CCN(c1cc(-c2ccc(CN3CCOCC3)cc2)cc(C(=O)NCc2c(C)cc(C)[nH]c2=O)c1C)C1CCOCC1 + NC1CCC(NC2CC2c2ccccc2)CC1

>  <RESULT>
< 5.52

$$$$
>  <COMPOUND>
Nc1ncn(C2CC(O)C(CO)O2)c(=O)n1 (centres undefined) + NC1CCC(NC2CC2c2ccccc2)CC1

>  <RESULT>
< 6.00

$$$$
>  <COMPOUND>
CCN(c1cc(-c2ccc(CN3CCOCC3)cc2)cc(C(=O)NCc2c(C)cc(C)[nH]c2=O)c1C)C1CCOCC1 + NC1CC1c1ccc(-c2cccc(O)c2)cc1

>  <RESULT>
< 5.52

$$$$
>  <COMPOUND>
Cn1ncnc1C1c2n[nH]c(=O)c3cc(F)cc(c23)NC1c1ccc(F)cc1 (centres undefined) + NC1CCC(NC2CC2c2ccccc2)CC1

>  <RESULT>
< 7.00

$$$$

* * *

Test system: 883617-216-R-J1-PDC complex spheroid viability
Assay: Anticancer human tumor 883617-216-R-J1-PDC cell line growth inhibition;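 further: exposure lasted seven days after three days of spheroid growth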
Conditions: curve of first compound; second compound 3.16 µM

>  <COMPOUND>
COc1cc(C2c3cc4c(cc3C(OC3OC5COC(C)OC5C(O)C3O)C3COC(=O)C23)OCO4)cc(OC)c1O (stereo not drawn) + NC1CC1c1ccc(-c2cccc(O)c2)cc1

>  <IC50>
0.0765 µM

$$$$
>  <COMPOUND>
Nc1ccccc1NC(=O)c1ccc(CNC(=O)OCc2cccnc2)cc1 + NC1CC1c1ccc(-c2cccc(O)c2)cc1

>  <IC50>
0.146 µM

$$$$
>  <COMPOUND>
O=C(C=Cc1cccc(S(=O)(=O)Nc2ccccc2)c1)NO + NC1CCC(NC2CC2c2ccccc2)CC1

>  <IC50>
0.139 µM

$$$$

* * *

System: 883617-216-R-J1-PDC complex spheroid viability
Experiment: Anticancer human tumor 883617-216-R-J1-PDC cell line growth inhibition;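 further: exposure lasted seven days after three days of spheroid growth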;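 on viability, T/C: 100% = DMSO vehicle control luminescence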
Conditions: second compound 3.16 µM; first compound 0.00949 µM; stronger effect = lower value

>  <COMPOUND>
O=C(C=Cc1cccc(S(=O)(=O)Nc2ccccc2)c1)NO + NC1CC1c1ccc(-c2cccc(O)c2)cc1

>  <UNIT ABBREV>
%

>  <viability, T/C>
105

$$$$
>  <COMPOUND>
COc1cc(C2c3cc4c(cc3C(OC3OC5COC(C)OC5C(O)C3O)C3COC(=O)C23)OCO4)cc(OC)c1O (stereo unspecified) + NC1CCC(NC2CC2c2ccccc2)CC1

>  <UNIT ABBREV>
%

>  <viability, T/C>
106

$$$$
>  <COMPOUND>
O=C(C=Cc1cccc(S(=O)(=O)Nc2ccccc2)c1)NO + NC1CCC(NC2CC2c2ccccc2)CC1

>  <UNIT ABBREV>
%

>  <viability, T/C>
101

$$$$
>  <COMPOUND>
NS(=O)(=O)OCC1CC(n2ccc3c(NC4CCc5ccccc54)ncnc32)CC1O (stereo unspecified) + NC1CCC(NC2CC2c2ccccc2)CC1

>  <UNIT ABBREV>
%

>  <viability, T/C>
101

$$$$
>  <COMPOUND>
Nc1ncn(C2CC(O)C(CO)S2)c(=O)n1 (stereo unspecified) + NC1CCC(NC2CC2c2ccccc2)CC1

>  <UNIT ABBREV>
%

>  <viability, T/C>
86.1

$$$$
>  <COMPOUND>
Nc1ccccc1NC(=O)c1ccc(CNC(=O)OCc2cccnc2)cc1 + NC1CC1c1ccc(-c2cccc(O)c2)cc1

>  <UNIT ABBREV>
%

>  <viability, T/C>
115

$$$$
>  <COMPOUND>
Nc1ccn(C2OC(CO)C(O)C2(F)F)c(=O)n1 (stereo unspecified) + NC1CCC(NC2CC2c2ccccc2)CC1

>  <UNIT ABBREV>
%

>  <viability, T/C>
22.3

$$$$
>  <COMPOUND>
Nc1ccn(C2OC(CO)C(O)C2(F)F)c(=O)n1 (stereo unspecified) + NC1CC1c1ccc(-c2cccc(O)c2)cc1

>  <UNIT ABBREV>
%

>  <viability, T/C>
20.6

$$$$
>  <COMPOUND>
COc1cc(C2c3cc4c(cc3C(OC3OC5COC(C)OC5C(O)C3O)C3COC(=O)C23)OCO4)cc(OC)c1O (stereo unspecified) + NC1CC1c1ccc(-c2cccc(O)c2)cc1

>  <UNIT ABBREV>
%

>  <viability, T/C>
90.6

$$$$
>  <COMPOUND>
CCN(c1cc(-c2ccc(CN3CCOCC3)cc2)cc(C(=O)NCc2c(C)cc(C)[nH]c2=O)c1C)C1CCOCC1 + NC1CC1c1ccc(-c2cccc(O)c2)cc1

>  <UNIT ABBREV>
%

>  <viability, T/C>
99.7

$$$$
>  <COMPOUND>
CCN(c1cc(-c2ccc(CN3CCOCC3)cc2)cc(C(=O)NCc2c(C)cc(C)[nH]c2=O)c1C)C1CCOCC1 + NC1CCC(NC2CC2c2ccccc2)CC1

>  <UNIT ABBREV>
%

>  <viability, T/C>
94.5

$$$$

* * *

The reader will find reported viability, T/C values listed item by item below.
System: 883617-216-R-J1-PDC complex spheroid viability
Test: Anticancer human tumor 883617-216-R-J1-PDC cell line growth inhibition;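 further: exposure lasted seven days after three days of spheroid growth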;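 on viability, T/C: 100% = DMSO vehicle control luminescence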
Details: second compound 1 µM; first compound 0.0316 µM; stronger effect = lower value
ATTRIBUTE MEASURED: viability, T/C (%)

>  <COMPOUND>
CC(C)CC(NC(=O)CNC(=O)c1cc(Cl)ccc1Cl)B1OC(=O)CC(CC(=O)O)(C(=O)O)O1 (stereo unspecified) + NC1CC1c1ccc(-c2cccc(O)c2)cc1

>  <SUBJECT OF TEST>
883617-216-R-J1-PDC complex spheroid viability

>  <ATTRIBUTE MEASURED>
viability, T/C

>  <UNIT ABBREV>
%

>  <NUMBER>
0.85

$$$$
>  <COMPOUND>
Nc1ncn(C2CC(O)C(CO)O2)c(=O)n1 (stereo unspecified) + NC1CC1c1ccc(-c2cccc(O)c2)cc1

>  <SUBJECT OF TEST>
883617-216-R-J1-PDC complex spheroid viability

>  <ATTRIBUTE MEASURED>
viability, T/C

>  <UNIT ABBREV>
%

>  <NUMBER>
96.8

$$$$
>  <COMPOUND>
CC1COCCN1c1cc(C2(S(C)(=N)=O)CC2)nc(-c2ccnc3[nH]ccc23)n1 (stereo unspecified) + NC1CCC(NC2CC2c2ccccc2)CC1

>  <SUBJECT OF TEST>
883617-216-R-J1-PDC complex spheroid viability

>  <ATTRIBUTE MEASURED>
viability, T/C

>  <UNIT ABBREV>
%

>  <NUMBER>
101

$$$$
>  <COMPOUND>
O=C(c1cc(Cc2n[nH]c(=O)c3ccccc23)ccc1F)N1CCN(C(=O)C2CC2)CC1 + NC1CC1c1ccc(-c2cccc(O)c2)cc1

>  <SUBJECT OF TEST>
883617-216-R-J1-PDC complex spheroid viability

>  <ATTRIBUTE MEASURED>
viability, T/C

>  <UNIT ABBREV>
%

>  <NUMBER>
91.3

$$$$
>  <COMPOUND>
CC(C)CC(NC(=O)C(Cc1ccccc1)NC(=O)c1cnccn1)B(O)O (stereo unspecified) + NC1CC1c1ccc(-c2cccc(O)c2)cc1

>  <SUBJECT OF TEST>
883617-216-R-J1-PDC complex spheroid viability

>  <ATTRIBUTE MEASURED>
viability, T/C

>  <UNIT ABBREV>
%

>  <NUMBER>
0.02

$$$$
>  <COMPOUND>
CC[C@@]1(O)C(=O)OCc2c1cc1n(c2=O)Cc2cc3c(CN(C)C)c(O)ccc3nc2-1 + NC1CC1c1ccc(-c2cccc(O)c2)cc1

>  <SUBJECT OF TEST>
883617-216-R-J1-PDC complex spheroid viability

>  <ATTRIBUTE MEASURED>
viability, T/C

>  <UNIT ABBREV>
%

>  <NUMBER>
24.6

$$$$

* * *

System: 883617-216-R-J1-PDC complex spheroid viability
Experiment: Anticancer human tumor 883617-216-R-J1-PDC cell line growth inhibition; active means viability on the fitted dose curve at most 10% of control; inactive means the rest;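 further: exposure lasted seven days after three days of spheroid growth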
Conditions: second compound 0.1 µM; first compound 0.0316 µM
Source text: Multicellular complex tumor spheroid response to LSD1 Inhibitor Iadademstat in combination with a variety of drugs and investigational agents in selected tumor cell lines The current study was undertaken to assess response to LSD1 inhibitors in combination with standard-of-care drugs and investigational agents in solid tumor complex spheroid models as well as in the K-562 leukemia. […] Compounds. […] If the clinical Cmax for an agent had not been determined, the highest concentration tested was 10 microM. […]
Classes used: YES (active), NO (inactive)

>  <COMPOUND>
CC1(C)CCC(CN2CCN(c3ccc(C(=O)NS(=O)(=O)c4ccc(NCC5CCOCC5)c([N+](=O)[O-])c4)c(Oc4cnc5[nH]ccc5c4)c3)CC2)=C(c2ccc(Cl)cc2)C1 + NC1CC1c1ccc(-c2cccc(O)c2)cc1

>  <DISCRETE LABEL>
NO

$$$$
>  <COMPOUND>
CC1COCCN1c1cc(-c2ccnn2C)c2ccnc(-c3ccn[nH]3)c2n1 (configuration not stated) + NC1CCC(NC2CC2c2ccccc2)CC1

>  <DISCRETE LABEL>
NO

$$$$
>  <COMPOUND>
CC1COCCN1c1cc(-c2ccnn2C)c2ccnc(-c3ccn[nH]3)c2n1 (configuration not stated) + NC1CC1c1ccc(-c2cccc(O)c2)cc1

>  <DISCRETE LABEL>
NO

$$$$
>  <COMPOUND>
O=C(c1cc(Cc2n[nH]c(=O)c3ccccc23)ccc1F)N1CCN(C(=O)C2CC2)CC1 + NC1CCC(NC2CC2c2ccccc2)CC1

>  <DISCRETE LABEL>
NO

$$$$
>  <COMPOUND>
CC(C)CC(NC(=O)C(Cc1ccccc1)NC(=O)c1cnccn1)B(O)O (configuration not stated) + NC1CC1c1ccc(-c2cccc(O)c2)cc1

>  <DISCRETE LABEL>
YES

$$$$
>  <COMPOUND>
O=C(C=Cn1cnc(-c2cc(C(F)(F)F)cc(C(F)(F)F)c2)n1)NNc1cnccn1 + NC1CCC(NC2CC2c2ccccc2)CC1

>  <DISCRETE LABEL>
NO

$$$$
>  <COMPOUND>
COc1cc(Nc2ncc3c(n2)-c2ccc(Cl)cc2C(c2c(F)cccc2OC)=NC3)ccc1C(=O)O + NC1CC1c1ccc(-c2cccc(O)c2)cc1

>  <DISCRETE LABEL>
NO

$$$$
